molecular target: Neurogenic locus notch homolog protein 2 (Homo sapiens) (UniProt Q04721); experiment: Notch2 binders on small-molecule microarrays, primary screen, biochemical, small-molecule microarray, 635 nm fluorescence, stem cell growth factors (AID 1073); settings: Notch2 binding, higher = more signal
Sequence (Q04721 whole entry, looked up): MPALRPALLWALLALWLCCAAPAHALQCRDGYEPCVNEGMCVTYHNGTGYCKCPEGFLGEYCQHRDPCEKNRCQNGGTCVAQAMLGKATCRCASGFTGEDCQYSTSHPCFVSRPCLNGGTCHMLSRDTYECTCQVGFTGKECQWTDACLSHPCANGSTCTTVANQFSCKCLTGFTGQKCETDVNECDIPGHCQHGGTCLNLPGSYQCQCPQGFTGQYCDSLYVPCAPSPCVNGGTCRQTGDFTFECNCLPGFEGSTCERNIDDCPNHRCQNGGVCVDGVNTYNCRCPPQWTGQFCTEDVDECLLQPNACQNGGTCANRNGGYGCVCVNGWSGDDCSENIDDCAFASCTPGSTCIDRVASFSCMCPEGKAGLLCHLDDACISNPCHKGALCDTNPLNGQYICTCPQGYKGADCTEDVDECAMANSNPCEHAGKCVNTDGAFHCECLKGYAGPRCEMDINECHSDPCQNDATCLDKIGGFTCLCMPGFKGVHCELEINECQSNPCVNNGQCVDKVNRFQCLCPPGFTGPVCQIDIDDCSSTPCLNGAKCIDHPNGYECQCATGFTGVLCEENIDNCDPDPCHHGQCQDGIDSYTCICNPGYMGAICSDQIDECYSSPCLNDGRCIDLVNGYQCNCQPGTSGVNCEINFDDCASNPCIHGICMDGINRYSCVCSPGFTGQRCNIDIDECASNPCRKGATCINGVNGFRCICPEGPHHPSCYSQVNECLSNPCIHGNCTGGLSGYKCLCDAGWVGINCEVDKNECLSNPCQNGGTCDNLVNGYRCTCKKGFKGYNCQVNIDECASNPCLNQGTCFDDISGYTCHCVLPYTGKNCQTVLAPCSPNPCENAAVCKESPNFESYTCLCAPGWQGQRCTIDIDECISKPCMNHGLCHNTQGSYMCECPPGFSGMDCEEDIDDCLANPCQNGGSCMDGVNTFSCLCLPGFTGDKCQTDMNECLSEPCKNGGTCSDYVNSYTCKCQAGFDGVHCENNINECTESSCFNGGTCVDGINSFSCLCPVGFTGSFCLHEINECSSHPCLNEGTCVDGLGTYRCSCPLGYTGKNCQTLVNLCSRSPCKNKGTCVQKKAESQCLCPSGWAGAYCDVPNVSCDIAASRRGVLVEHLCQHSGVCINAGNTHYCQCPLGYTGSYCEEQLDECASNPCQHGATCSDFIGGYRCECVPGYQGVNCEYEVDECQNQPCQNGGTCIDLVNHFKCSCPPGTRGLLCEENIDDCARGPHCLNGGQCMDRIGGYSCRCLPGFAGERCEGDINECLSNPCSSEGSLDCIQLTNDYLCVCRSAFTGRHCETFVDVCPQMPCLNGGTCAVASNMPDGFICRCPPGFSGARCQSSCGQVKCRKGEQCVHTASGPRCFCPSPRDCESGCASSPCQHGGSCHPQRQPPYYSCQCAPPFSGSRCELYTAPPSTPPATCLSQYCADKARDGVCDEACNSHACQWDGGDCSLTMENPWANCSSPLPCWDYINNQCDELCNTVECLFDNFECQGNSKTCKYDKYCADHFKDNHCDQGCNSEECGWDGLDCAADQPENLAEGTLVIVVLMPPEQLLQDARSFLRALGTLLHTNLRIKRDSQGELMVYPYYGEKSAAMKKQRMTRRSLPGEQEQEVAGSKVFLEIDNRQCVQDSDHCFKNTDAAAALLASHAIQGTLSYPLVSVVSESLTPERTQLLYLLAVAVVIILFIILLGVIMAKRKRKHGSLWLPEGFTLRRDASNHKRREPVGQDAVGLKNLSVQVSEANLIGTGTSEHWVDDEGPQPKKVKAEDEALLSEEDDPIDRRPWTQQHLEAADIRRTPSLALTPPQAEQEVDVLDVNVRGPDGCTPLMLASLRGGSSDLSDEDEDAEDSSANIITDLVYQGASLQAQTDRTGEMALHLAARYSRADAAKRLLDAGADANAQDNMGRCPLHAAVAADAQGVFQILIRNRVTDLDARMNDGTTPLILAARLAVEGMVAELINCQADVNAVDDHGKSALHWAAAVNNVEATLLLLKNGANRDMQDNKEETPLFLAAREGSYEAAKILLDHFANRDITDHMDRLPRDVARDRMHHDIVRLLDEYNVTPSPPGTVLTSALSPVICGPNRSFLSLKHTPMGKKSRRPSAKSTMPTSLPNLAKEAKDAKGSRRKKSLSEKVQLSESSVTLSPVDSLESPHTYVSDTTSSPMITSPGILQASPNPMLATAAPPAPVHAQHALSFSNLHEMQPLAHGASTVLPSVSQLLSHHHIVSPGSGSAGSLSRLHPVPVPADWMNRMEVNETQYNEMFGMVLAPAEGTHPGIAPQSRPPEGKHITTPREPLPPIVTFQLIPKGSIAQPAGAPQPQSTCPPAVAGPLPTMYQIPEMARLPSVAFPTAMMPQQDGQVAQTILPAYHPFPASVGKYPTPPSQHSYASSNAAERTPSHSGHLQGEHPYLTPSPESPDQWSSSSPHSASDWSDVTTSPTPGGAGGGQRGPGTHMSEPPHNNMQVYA
Label 1 when composite z-score is at or above 0.5; otherwise label -1.

MOLECULE	SYSTEM	LABEL_CLASS
C[N+](C)(C)CCCC[C@@H]1NC(=O)[C@H]2C[C@@H](C(=O)NCCCCCN)[C@@H](c3cccc(OCCO)c3)N2C1=O	Neurogenic locus notch homolog protein 2 (Homo sapiens) (UniProt Q04721)	1
C=CC[C@@]1(C(=O)NCc2ccccc2)N=C(c2ccc(OCCCO)cc2)O[C@@H]1c1ccccc1	Neurogenic locus notch homolog protein 2 (Homo sapiens) (UniProt Q04721)	-1
CCOC(=O)C[C@H]1[C@H](OC(=O)c2ccc(-c3ccccc3)cc2)[C@@H](NC(=O)c2ccccc2)c2cc(OCCCO)ccc2N1C(=O)c1ccccc1	Neurogenic locus notch homolog protein 2 (Homo sapiens) (UniProt Q04721)	1
CC(C)C[C@@H]1NC(=O)[C@@]23C(=O)N[C@@H](Cc4ccccc4)C2[C@H](C)[C@@]2(C)O[C@H]2C3/C=C/CC/C=C/CNC(=O)[C@@H](C)NC1=O (stereo partly drawn)	Neurogenic locus notch homolog protein 2 (Homo sapiens) (UniProt Q04721)	1
CCCNC(=O)[C@@H]1c2ccccc2C(=O)N(Cc2cc(C(F)(F)F)cc(C(F)(F)F)c2)[C@H]1c1ccc(CO)cc1	Neurogenic locus notch homolog protein 2 (Homo sapiens) (UniProt Q04721)	-1
NC(=O)N1C(=O)C2C(C1=O)C1C=C(c3ccc(CO)cc3)C2C(C2CC2)N1Cc1cc2c(cc1Br)OCO2 (stereo not drawn)	Neurogenic locus notch homolog protein 2 (Homo sapiens) (UniProt Q04721)	-1

### Prompt // inclusive: composite z-score at least 0.5? input: CCN(CC)c1ccc(N2CC=CC34O[C@@H]5C=CCOC(=O)[C@@H]5[C@H]3C(=O)N(C(CO)C(C)C)[C@@H]4C2=O)cc1 (stereo partly drawn)
### Response -1

### Prompt Identify whether the reported composite z-score of the following molecule is 0.5 or greater: CCCCC(=C=CC[C@@H](O)c1ccc(OCCO)cc1)C[C@@H](O)c1cc(Cl)cc(Cl)c1O
### Response -1

### Prompt Hi team, for COc1c(C)cc(-c2cc3c(c(CCc4ccccc4)n2)[Si](C(C)C)(C(C)C)OC3)cc1C , is the recorded composite z-score at or above 0.5?
### Response -1

### Prompt In plain terms: is recorded composite z-score at least 0.5 for COc1ccc(C#Cc2ccc3c(c2)[C@]2(C(=O)N3)[C@H](c3ccc(O)cc3)N3[C@H](c4ccccc4)[C@H](c4ccccc4)OC(=O)[C@H]3[C@@H]2C(N)=O)cc1 ?
### Response -1

### Prompt Given CC(C)[C@@H](C(=O)O)n1cc(-c2ccccn2)nn1 , state whether its composite z-score is at least 0.5.
### Response 1

### Prompt Hi, just wondering whether COc1ccc(C#Cc2ccc3c(c2)[C@]2(C(=O)N3)[C@H](c3ccc(O)cc3)N3[C@H](c4ccccc4)[C@H](c4ccccc4)OC(=O)[C@H]3[C@@H]2C(=O)N2CCN(c3ncccn3)CC2)cc1 shows composite z-score of 0.5 or higher.
### Response 1

### Prompt Does CN(C)CCCC[C@@H]1NC(=O)[C@@H]2C[C@H](C(=O)NCCCCCNC(=O)CS)[C@H](c3cccc(OCCO)c3)N2C1=O have a reported composite z-score of at least 0.5?
### Response -1

---

The entries below are paired with their reported composite z-score.
target: Epidermal growth factor receptor (Homo sapiens); assay: EGFR binders on small-molecule microarrays, primary screen, biochemical, small-molecule microarray, 635 nm fluorescence (AID 1104); details: EGFR binding, higher = more signal;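 further: score merges 667 nm emission intensity with spot signal to noise over triplicate slides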
Write no unit; give the number alone.

Examples with answers:
COMPOUND	composite z-score
C=CC[C@]1(C(=O)N2CCCCC2)COC(c2ccc(OCCCO)cc2)=N1	-1
CO[C@H]1O[C@H](CO)[C@@H](OC(=O)Nc2ccccc2)[C@H](OC(=O)Nc2ccc3c(c2)OCO3)[C@H]1OC(=O)Nc1ccc2c(c1)OCO2	-0.242
CC(C)N1CC=CC23O[C@@H]4/C=C\CCCOC(=O)C4[C@H]2C(=O)N(CCCO)[C@@H]3C1=O (stereo not given in full)	-1.64

# ---- query compound ----
### Prompt Consider the compound C=C(COC)C(=O)CC[C@H](OC(=O)c1cccnc1)c1cccc(OCCO)c1 and give its measured composite z-score.
### Response 0.041

---

A collection of compounds and their measured z-score
experiment: FRG1 promoter luciferase signal modulators, primary screen, FRG1 inhibition for FSHD, cell-based, C2C12 myotubes, firefly/Renilla luciferase, luminescence (AID 1084); details: higher = more signal, called active from +8 up or from −8 down
Could you keep your reply to the number by itself?

// known answers, use as guide
COMPOUND	OBSERVED_VALUE
COc1ccc([Si](C)(C)[C@@H]2[C@@H](CCn3cc(CCO)nn3)O[C@]3(C(=O)N(Cc4ccc(N5C(=O)c6cccc7cccc5c67)cc4)c4ccccc43)[C@H]2C)cc1	-3.48
Cc1ccc(S[C@]2(C(=O)NCC(C)C)CC(=O)N(C(C)C)[C@@H]2c2ccc(CO)cc2)cc1	-0.781
C=C(C(=O)CC[C@@H](OC(C)=O)c1ccccc1OCCO)C(C)C	-2.13
O=C(NC1CC1)[C@@H]1c2ccccc2C(=O)N(Cc2ccccc2C(F)(F)F)[C@H]1c1ccc(CO)cc1	-1.64

### Prompt I would be grateful if you could share the reported z-score for CC(C)CNC(=O)[C@@H]1c2ccccc2C(=O)N(Cc2ccc(OC(F)(F)F)cc2)[C@H]1c1ccc(CO)cc1 .
### Response -2.61

### Prompt Requested read-out: z-score. Entry: C=CCC(OC(C)=O)[C@@H]1[C@@H](N(Cc2cc3ccccc3o2)C(=O)c2ccc(-c3ccccc3)cc2)c2cc(OCCCO)ccc2N1C(=O)c1ccc(-c2ccccc2)cc1 (stereo not given in full)
### Response -1.24

---

target: Calmodulin-1 (Homo sapiens); assay: CALM1 binders on microarrays, EGTA buffer, profiling panel, biochemical, small-molecule microarray, Cy5-labelled CALM1 (AID 1111); settings: Cy5-CALM1 binding fluorescence, higher = more signal;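 further: labelled calmodulin applied in Tris saline Tween buffer holding calcium plus EGTA and DTT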
Measured composite z-score accompanies every entry in the list below.
Just the number, please, no unit after it.

# annotated cases, reported composite z-score shown
MOLECULE	composite z-score
C=C1C=C(Br)C2(OCCCO2)[C@H]2OC12 (stereo not given in full)	-0.367
COCCOC(=O)N1C(=O)[C@@]2(c3ccccc31)[C@H](C(=O)Nc1nc3ccccc3s1)[C@H]1C(=O)O[C@H](c3ccccc3)[C@H](c3ccccc3)N1[C@@H]2c1ccc(O)cc1	1.74
CC(C)[Si](C#C[Si](C(C)C)(C(C)C)C(C)C)(O[C@H](C)c1cn([C@H](C)c2ccccc2)nn1)C(C)C	0.242
COc1ccc(CCNC(=O)[C@@]2(Sc3ccc(C)cc3)CC(=O)N(Cc3ccccc3)[C@@H]2c2ccc(CO)cc2I)cc1	-0.615
CC(C)[C@@H](C(=O)O)n1cc(-c2ccccn2)nn1	0.51

### Prompt Would you mind telling me what composite z-score value was observed for CC(C)C[C@@H]1NC(=O)[C@@]23C(=O)N[C@@H](Cc4ccccc4)C2[C@H](C)[C@@]2(C)O[C@H]2C3/C=C/C/C=C\CNC(=O)[C@H](Cc2ccccc2)NC1=O (stereo not given in full) ?
### Response -0.388

### Prompt Record request: composite z-score value, item COC(=O)c1c(CC[C@@H](CO)NC(=O)Nc2ccc(OC)cc2)oc(C(=O)Cc2ccccc2)c1C(=O)OC
### Response -0.315

### Prompt Entry under review: Cc1ccc(S[C@]2(C(=O)NCC(C)C)CC(=O)N(C(C)C)[C@@H]2c2ccc(CO)cc2)cc1 . Reported composite z-score?
### Response -0.886

### Prompt Quick check: composite z-score of CC(C)NC(=O)[C@@H]1c2ccccc2C(=O)N(Cc2cc(F)cc(C(F)(F)F)c2)[C@H]1c1ccc(CO)cc1 ?
### Response 0.343

### Prompt Record request: composite z-score value, item CC(C)(C)OC(=O)CC[C@]1(C(=O)NCc2ccccc2)COC(c2ccc(OCCCO)cc2)=N1
### Response 0.98

### Prompt Give its composite z-score value. Item: C=CC[C@@]1(C(=O)NCc2ccccc2)N=C(c2ccc(OCCCO)cc2)O[C@@H]1c1ccccc1
### Response 1.68

### Prompt Consider the molecule COc1ccc(C#Cc2ccc3c(c2)[C@]2(C(=O)N3)[C@H](c3ccc(O)cc3)N3[C@H](c4ccccc4)[C@H](c4ccccc4)OC(=O)[C@H]3[C@@H]2C(=O)N2CCN(c3ncccn3)CC2)cc1 and give its measured composite z-score.
### Response 1.95

### Prompt Please look up its composite z-score: C=C(C1=CCN(S(=O)(=O)c2ccc(C)cc2)C1)[C@@H](OC(C)=O)[C@@H]1CCCN1S(=O)(=O)c1ccccc1[N+](=O)[O-]
### Response -0.765

### Prompt Tell me the measured composite z-score of C=CCNC(=O)[C@H]1[C@@H]2C(=O)O[C@@H](c3ccccc3)[C@@H](c3ccccc3)N2[C@@H](c2ccc(OCCO)cc2)[C@]12C(=O)Nc1ccc(C#CCCO)cc12 , please.
### Response 0.0076

### Prompt Value lookup for composite z-score; key = O=C(NCc1ccccc1)[C@@H]1c2ccccc2C(=O)N(Cc2ccccc2Cl)[C@H]1c1ccc(CO)cc1
### Response -0.23
